Readings of pEC50 for the listed compounds
- Tested on: A2780 cells
- assay_details: Viability assay in A2780 (Cell Titer Glo)
- Assay type: cell-based, human
- setup_conditions: Homo sapiens; A2780 cells, 72 hrs; read-out: A2780 Cell prolif. EC50
pEC50: −log10 of the molar value.

Worked cases, pEC50 given:
{"columns": ["smiles_string", "tested_on", "pEC50"],
 "data": [
  ["CC(=O)Nc1nc2ccc(-c3cnc(N)c(C(=O)N4CCOCC4)c3)cc2s1", "A2780 cells", "> 5.00"],
  ["Nc1ncc(-c2ccc3nc(NC(=O)CCCN4CCOCC4)sc3c2)cc1C(F)(F)F", "A2780 cells", "> 5.00"]
]}

Notebook: pull reported pEC50 for A2780 cells, entry CC(=O)Nc1nc2ccc(-c3cnc(N)nc3C(F)(F)F)cc2s1
> 4.60

And for CC(=O)Nc1nc2ccc(-c3cnc(N)c(C(F)(F)F)c3)c(C)c2s1 ?
> 5.00

And for CC(=O)Nc1nc2ccc(-c3cnc(N)c(F)c3)cc2s1 ?
> 5.00

And for CC(=O)Nc1nc2ccc(-c3cnc(N)c(CN(C)C)c3)cc2s1 ?
> 5.00

And for CC(=O)Nc1nc2ccc(-c3cnc(N)nc3)cc2s1 ?
> 5.00

And for Nc1ccc(C(=O)Nc2nc3ccc(-c4cnc(N)c(C(F)(F)F)c4)cc3s2)cn1 ?
> 6.00

And for CC(=O)Nc1nc2ccc(-c3ccc(N)nc3)cc2s1 ?
> 5.00

And for CC(=O)Nc1nc2cc(F)c(-c3cnc(N)c(C(F)(F)F)c3)cc2s1 ?
> 4.60

And for CNC(=O)Nc1nc2ccc(-c3ccc(N)nc3)cc2s1 ?
> 5.00

And for NC(=O)[C@@H]1CCCN1C(=O)Nc1nc2ccc(-c3cnc(N)c(C(F)(F)F)c3)cc2s1 ?
> 5.00

And for CC(=O)Nc1nc2ccc(-c3cnc(N)c(C)c3)cc2s1 ?
> 5.00

And for CCCNc1ccc(-c2ccc3nc(NC(C)=O)sc3c2)cn1 ?
> 4.60

###

- Test system: A2780 cells
- assay_details: Viability assay in A2780 (Cell Titer Glo)
- Type: cell-based, human
- setup_conditions: Homo sapiens; A2780 cells; read-out: A2780 Cell prolif. EC50
pEC50: −log10 of the molar value.
test_readout: pEC50

Worked cases, pEC50 given:
{"columns": ["smiles_string", "test_readout", "obs_value"],
 "data": [
  ["Nc1ncc(-c2ccc3nc(NC(=O)c4ccc(-n5ccnc5)cc4)cn3c2)cc1C(F)(F)F", "pEC50", "> 5.00"],
  ["CC(=O)Nc1cn2cc(-c3cnc(N)c(-c4ccccc4)c3)ccc2n1", "pEC50", "> 5.00"],
  ["CC(C)(C)OC(=O)NCCC(=O)Nc1cn2nc(-c3cnc(N)c(C(F)(F)F)c3)ccc2n1", "pEC50", "> 5.00"],
  ["Nc1ncc(-c2ccc3nc(NC(=O)c4ccc(N5CCNCC5)nc4)cn3c2)cc1C(F)(F)F", "pEC50", "> 5.00"],
  ["CC(=O)Nc1cn2cc(-c3cnc(N)c(Oc4ccc(N5CCN(C(C)=O)CC5)cc4)n3)ccc2n1", "pEC50", "> 5.00"],
  ["Nc1ncc(-c2ccc3nc(NC(=O)N4CC[C@H](O)C4)cn3c2)cc1C(F)(F)F", "pEC50", "> 5.00"],
  ["COc1ccc(CC(=O)Nc2cn3cc(-c4cnc(N)c(C(F)(F)F)c4)ccc3n2)cc1", "pEC50", "> 6.00"],
  ["CCN(CC)Cc1cc(-c2ccc3nc(NC(C)=O)cn3c2)cnc1N", "pEC50", "> 4.60"]
]}

Report pEC50 for COCC(=O)Nc1cn2cc(-c3cnc(N)c(OCC(F)(F)F)n3)ccc2n1 please.
> 6.00

And for CC(C)(C)OC(=O)N1CC(C(=O)Nc2cn3nc(-c4cnc(N)c(C(F)(F)F)c4)ccc3n2)C1 ?
> 5.00

And for CC(C)C(=O)Nc1cn2cc(-c3cnc(N)c(C(F)(F)F)c3)ccc2n1 ?
> 4.60

And for CC(C)(C)OC(=O)N1CC(C(=O)Nc2cn3cc(-c4cnc(N)c(C(F)(F)F)c4)ccc3n2)C1 ?
> 5.00

And for C/C=C/c1c(NC(C)=O)nc2ccc(-c3cnc(N)c(C(F)(F)F)c3)cn12 ?
> 5.00

And for CC(=O)Nc1cn2nc(-c3cnc(N)c(-c4cccc(C(F)(F)F)c4)c3)ccc2n1 ?
> 5.00

And for CC(=O)Nc1cn2c(C)c(-c3cnc(N)c(OCC(F)(F)F)n3)ccc2n1 ?
> 5.00

And for NCCCC(=O)Nc1cn2nc(-c3cnc(N)c(C(F)(F)F)c3)ccc2n1 ?
> 4.60

And for Nc1ncc(-c2ccc3nc(NC(=O)CCCN4CCCCC4)cn3c2)cc1C(F)(F)F ?
> 5.00

###

- tested_on: PI3 K Alpha (Homo sapiens, UniProt P42336)
- Sequence (P42336 whole entry): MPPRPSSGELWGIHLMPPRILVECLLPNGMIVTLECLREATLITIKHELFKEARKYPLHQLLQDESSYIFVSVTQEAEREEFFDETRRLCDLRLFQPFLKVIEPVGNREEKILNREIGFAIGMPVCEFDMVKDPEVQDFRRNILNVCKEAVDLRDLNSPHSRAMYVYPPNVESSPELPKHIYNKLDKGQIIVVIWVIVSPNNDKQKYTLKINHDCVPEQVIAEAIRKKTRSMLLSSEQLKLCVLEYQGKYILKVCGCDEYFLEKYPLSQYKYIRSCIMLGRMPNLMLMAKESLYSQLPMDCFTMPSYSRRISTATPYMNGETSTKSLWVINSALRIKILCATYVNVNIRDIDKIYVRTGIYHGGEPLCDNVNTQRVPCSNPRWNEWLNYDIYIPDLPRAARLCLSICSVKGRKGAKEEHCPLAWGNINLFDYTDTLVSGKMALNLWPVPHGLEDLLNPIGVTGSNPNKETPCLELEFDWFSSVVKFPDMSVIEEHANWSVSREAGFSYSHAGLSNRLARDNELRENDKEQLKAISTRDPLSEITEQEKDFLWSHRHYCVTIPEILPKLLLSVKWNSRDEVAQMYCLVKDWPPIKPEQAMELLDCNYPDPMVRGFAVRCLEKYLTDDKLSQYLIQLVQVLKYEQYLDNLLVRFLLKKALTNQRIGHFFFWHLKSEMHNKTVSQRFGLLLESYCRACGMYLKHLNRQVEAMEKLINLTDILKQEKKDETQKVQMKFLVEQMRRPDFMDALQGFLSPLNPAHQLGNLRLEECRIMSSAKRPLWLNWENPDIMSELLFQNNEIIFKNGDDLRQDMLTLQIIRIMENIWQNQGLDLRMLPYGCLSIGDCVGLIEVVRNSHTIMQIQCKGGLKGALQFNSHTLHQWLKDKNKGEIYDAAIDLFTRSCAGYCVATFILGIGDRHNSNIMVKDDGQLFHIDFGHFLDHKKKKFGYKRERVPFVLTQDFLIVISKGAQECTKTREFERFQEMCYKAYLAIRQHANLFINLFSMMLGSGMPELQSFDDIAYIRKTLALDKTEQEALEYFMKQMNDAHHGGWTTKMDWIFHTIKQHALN
- Sequence (P27986 whole entry partner): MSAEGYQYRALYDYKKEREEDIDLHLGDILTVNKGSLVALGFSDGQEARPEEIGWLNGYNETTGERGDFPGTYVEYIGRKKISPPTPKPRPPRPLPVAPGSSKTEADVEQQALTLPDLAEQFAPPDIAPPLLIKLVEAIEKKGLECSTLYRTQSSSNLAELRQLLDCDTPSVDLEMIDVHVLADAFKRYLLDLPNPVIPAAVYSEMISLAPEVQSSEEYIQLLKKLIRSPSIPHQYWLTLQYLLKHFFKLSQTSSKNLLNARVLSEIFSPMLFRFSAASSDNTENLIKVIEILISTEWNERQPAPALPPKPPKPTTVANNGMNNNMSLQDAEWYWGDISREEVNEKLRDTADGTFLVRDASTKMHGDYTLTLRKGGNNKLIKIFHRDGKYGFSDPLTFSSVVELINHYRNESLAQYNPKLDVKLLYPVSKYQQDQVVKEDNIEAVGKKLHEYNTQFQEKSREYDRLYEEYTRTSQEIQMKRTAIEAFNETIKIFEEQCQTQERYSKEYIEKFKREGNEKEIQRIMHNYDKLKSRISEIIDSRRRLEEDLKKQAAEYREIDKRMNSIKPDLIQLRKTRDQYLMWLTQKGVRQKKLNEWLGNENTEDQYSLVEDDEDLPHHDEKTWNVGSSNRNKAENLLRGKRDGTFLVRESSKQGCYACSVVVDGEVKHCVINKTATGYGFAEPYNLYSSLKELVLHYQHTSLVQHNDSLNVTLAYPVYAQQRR
- assay_details: PI3 kinase phosphorylation assays (homogenous solution phase, one step solid phase, ATP depletion/KinaseGlo)
- Format: biochemical
- setup_conditions: read-out: PI3K Alpha IC50
test_readout: IC50

Worked cases, IC50 given:
{"columns": ["smiles_string", "IC50"],
 "data": [
  ["CC(=O)Nc1cn2cc(-c3cnc(N)c(F)c3)ccc2n1", "< 1000 nM"],
  ["CCOC(=O)CC(=O)Nc1cn2cc(-c3cnc(N)c(C(F)(F)F)c3)ccc2n1", "< 1000 nM"]
]}

Notebook: pull reported IC50 for PI3 K Alpha (Homo sapiens, UniProt P42336), entry CC(=O)Nc1nc2ccc(-c3cnc(N)c(C(F)(F)F)c3)cn2c1C#N
< 1000 nM

And for COc1ccc(C#Cc2c(NC(C)=O)nc3ccc(-c4cnc(N)c(C(F)(F)F)c4)cn23)cc1 ?
< 1000 nM

###

- Test system: pSer473-Akt in A2780 cells
- assay_details: pSer473 Akt assay to monitor PI3K pathway in A2780 cells (MSD)
- Assay type: cell-based
- setup_conditions: Homo sapiens; A2780 cells; read-out: A2780 pAKT 473 EC50
test_readout: EC50

Worked cases, EC50 given:
{"columns": ["compound", "obs_value"],
 "data": [
  ["CC(C)(C)OC(=O)N1CC[C@H](OCC(=O)Nc2cn3nc(-c4cnc(N)c(C(F)(F)F)c4)ccc3n2)C1 [Example 98]", "< 1 µM"],
  ["CC(=O)Nc1cn2cc(-c3cnc(N)c(-c4cccc(N5CCOCC5)c4)c3)ccc2n1 [Example 86]", "< 1 µM"],
  ["CCOc1cc(-c2ccc3nc(NC(C)=O)cn3c2)cnc1N [Example 111]", "< 1 µM"],
  ["COc1cc(-c2ccc3nc(NC(C)=O)c(Br)n3c2)cnc1N [Example 8]", "< 1 µM"],
  ["C/C=C/c1c(NC(C)=O)nc2ccc(-c3cnc(N)c(C(F)(F)F)c3)cn12 [Example 193]", "< 10 µM"],
  ["Nc1ncc(-c2ccc3nc(NC(=O)CO[C@@H]4CCNC4)cn3n2)cc1C(F)(F)F [Example 69]", "< 1 µM"]
]}

Notebook: pull reported EC50 for pSer473-Akt in A2780 cells, entry CC(=O)Nc1cn2c(C)c(-c3cnc(N)c(C(F)(F)F)c3)ccc2n1 [Example 194]
< 10 µM

And for CC(=O)Nc1cn2cc(-c3cnc(N)nc3)ccc2n1 [Example 4] ?
< 10 µM

And for CNC(=O)c1ccc(-c2c(NC(C)=O)nc3ccc(-c4cnc(N)c(C(F)(F)F)c4)cn23)cc1 [Example 18] ?
< 10 µM

And for COCCOc1nc(-c2ccc3nc(NC(=O)COC)cn3c2)cnc1N [Example 196] ?
< 1 µM

And for Cc1cc(C(=O)Nc2cn3cc(-c4cnc(N)c(C(F)(F)F)c4)ccc3n2)no1 [Example 94] ?
< 1 µM

And for CC(=O)Nc1nc2ccc(-c3cnc(N)c(C(F)(F)F)c3)cn2c1C#CCN1CCOCC1 [Example 213] ?
< 10 µM

And for CC(=O)Nc1cn2cc(-c3cnc(N)c(OC4CN(C(=O)OC(C)(C)C)C4)n3)ccc2n1 [Example 67] ?
< 1 µM

###

- Tested on: A2780 cells
- assay_details: Viability assay in A2780 (Cell Titer Glo)
- Type: cell-based, human
- setup_conditions: Homo sapiens; A2780 cells; read-out: A2780 Cell prolif. EC50
Readings of EC50 for the listed compounds

Worked cases, EC50 given:
{"columns": ["compound", "obs_value"],
 "data": [
  ["CC(=O)Nc1cn2cc(-c3cnc(N)c(C(=O)N4CCCC4)c3)ccc2n1", "< 25 µM"],
  ["CC(=O)Nc1nc2ccc(-c3cnc(N)c(C(F)(F)F)c3)cn2c1C#N", "< 1 µM"],
  ["CC(=O)NC1CCN(C(=O)Nc2cn3cc(-c4cnc(N)c(C(F)(F)F)c4)ccc3n2)C1 (stereo not drawn)", "< 25 µM"],
  ["CC(=O)Nc1cn2nc(-c3cnc(N)c(Cl)c3)ccc2n1", "< 1 µM"]
]}

Report EC50 for CC(=O)Nc1cn2cc(-c3cnc(N)c(-c4cccc(C(F)(F)F)c4)c3)ccc2n1 please.
< 1 µM

And for Nc1ncc(-c2ccc3nc(NC(=O)CCCN4CCOCC4)cn3n2)cc1C(F)(F)F ?
< 1 µM

And for Nc1ccc(-c2ccc3nc(NC(=O)C(F)(F)F)cn3c2)cn1 ?
< 25 µM

And for NC(=O)Nc1cn2cc(-c3cnc(N)c(C(F)(F)F)c3)ccc2n1 ?
< 10 µM

And for COCCOc1nc(-c2ccc3nc(NC(=O)COC)cn3c2)cnc1N ?
< 10 µM
